Origin of the recorded values: ChEMBL document CHEMBL5518181

# testProtocol: Hemolytic activity in human red blood cells at 400 ug/ml incubated for 45 mins by spectrophotometric analysis relative to control
# Format: toxicity, cell-based, Erythrocyte
# measurementContext: red blood cells (erythrocytes), at 400 µg/mL, read-out: Activity
A collection of compounds and their measured hemolysis at 0.75 h, 400 ug/ml
State the answer as a number, implicitly in %.

Before answering, review these 3 worked examples.
CC[C@H](C)[C@@H](NC(=O)[C@@H](NC(=O)[C@H](CCC(=O)O)NC(=O)[C@H](Cc1ccccc1)NC(=O)[C@@H](CCN)NC(=O)[C@H](CCN)NC(=O)[C@H](CO)NC(=O)[C@@H](Cc1c[nH]c2ccccc12)NC(=O)[C@@H](CO)NC(=O)[C@H](C)NC(=O)[C@@H](CCN)NC(=O)[C@H](N)C(C)C)C(C)C)C(=O)N[C@@H](C)C(=O)O; 0
CC[C@H](C)[C@@H](NC(=O)[C@@H](NC(=O)[C@H](CCC(=O)O)NC(=O)[C@H](Cc1ccccc1)NC(=O)[C@@H](CCN)NC(=O)[C@H](CCN)NC(=O)[C@H](CO)NC(=O)[C@@H](Cc1c[nH]c2ccccc12)NC(=O)[C@@H](CC(=O)O)NC(=O)CNC(=O)[C@@H](CCN)NC(=O)[C@H](N)C(C)C)C(C)C)C(=O)N[C@@H](C)C(=O)O; 0
CC[C@H](C)[C@@H](NC(=O)[C@@H](NC(=O)[C@H](CCC(=O)O)NC(=O)[C@H](Cc1ccccc1)NC(=O)[C@@H](CN)NC(=O)[C@H](CCN)NC(=O)[C@H](CO)NC(=O)[C@@H](Cc1c[nH]c2ccccc12)NC(=O)[C@@H](CO)NC(=O)CNC(=O)[C@@H](CCN)NC(=O)[C@H](NC(=O)[C@H](C)N)C(C)C)C(C)C)C(=O)N[C@@H](C)C(=O)O; 0

Given the compound CC[C@H](C)[C@@H](NC(=O)[C@@H](NC(=O)[C@H](CCC(=O)O)NC(=O)[C@H](C)NC(=O)[C@@H](CCN)NC(=O)[C@H](CCN)NC(=O)[C@H](CO)NC(=O)[C@@H](Cc1c[nH]c2ccccc12)NC(=O)[C@@H](CO)NC(=O)CNC(=O)[C@@H](CCN)NC(=O)[C@H](N)C(C)C)C(C)C)C(=O)N[C@@H](C)C(=O)O , write its reported hemolysis at 0.75 h, 400 ug/ml.
2.5

Given the compound CC[C@H](C)[C@@H](NC(=O)[C@H](CC1CCCCC1)NC(=O)[C@H](CCC(=O)O)NC(=O)[C@H](Cc1ccccc1)NC(=O)[C@@H](CCN)NC(=O)[C@H](CCN)NC(=O)[C@H](CO)NC(=O)[C@@H](Cc1c[nH]c2ccccc12)NC(=O)[C@@H](CO)NC(=O)CNC(=O)[C@@H](CCN)NC(=O)[C@H](NC(=O)[C@H](C)N)C(C)C)C(=O)N[C@@H](C)C(=O)O , write its reported hemolysis at 0.75 h, 400 ug/ml.
59

Given the compound CC(C)[C@H](NC(=O)[C@H](CCC(=O)O)NC(=O)[C@H](Cc1ccccc1)NC(=O)[C@@H](CCN)NC(=O)[C@H](CCN)NC(=O)[C@H](CO)NC(=O)[C@@H](Cc1c[nH]c2ccccc12)NC(=O)[C@@H](CO)NC(=O)CNC(=O)[C@@H](CCN)NC(=O)[C@H](N)C(C)C)C(=O)N[C@@H](C(=O)N[C@@H](C)C(N)=O)C(C)(C)C , write its reported hemolysis at 0.75 h, 400 ug/ml.
1.6

Given the compound CC(C)[C@H](NC(=O)[C@H](CCC(=O)O)NC(=O)[C@H](Cc1ccccc1)NC(=O)[C@@H](CCN)NC(=O)[C@H](CCN)NC(=O)[C@H](CO)NC(=O)[C@@H](Cc1c[nH]c2ccccc12)NC(=O)[C@@H](CO)NC(=O)CNC(=O)[C@@H](CCN)NC(=O)[C@H](N)C(C)C)C(=O)N[C@@H](C(=O)N[C@@H](C)C(=O)O)C(C)(C)C , write its reported hemolysis at 0.75 h, 400 ug/ml.
14.4

Given the compound CC[C@H](C)[C@@H](NC(=O)[C@@H](NC(=O)[C@H](CCC(=O)O)NC(=O)[C@H](Cc1ccccc1)NC(=O)[C@@H](CCN)NC(=O)[C@H](CCN)NC(=O)[C@H](CO)NC(=O)[C@@H](Cc1c[nH]c2ccccc12)NC(=O)[C@@H](CO)NC(=O)CNC(=O)[C@@H](CCN)NC(=O)[C@H](NC(=O)[C@H](C)N)C(C)C)C(C)C)C(=O)N[C@@H](C)C(N)=O , write its reported hemolysis at 0.75 h, 400 ug/ml.
1.5

Given the compound CC[C@H](C)[C@@H](NC(=O)[C@@H](NC(=O)[C@H](CCC(=O)O)NC(=O)[C@H](Cc1ccccc1)NC(=O)[C@@H](CCN)NC(=O)[C@H](CCN)NC(=O)[C@H](CO)NC(=O)[C@@H](Cc1c[nH]c2ccccc12)NC(=O)[C@@H](CO)NC(=O)CNC(=O)[C@@H](CCN)NC(=O)[C@H](NC(=O)[C@@H](C)N)C(C)C)C(C)C)C(=O)N[C@@H](C)C(=O)O , write its reported hemolysis at 0.75 h, 400 ug/ml.
2.3

Given the compound CC[C@H](C)[C@@H](NC(=O)[C@@H](NC(=O)[C@H](CCC(=O)O)NC(=O)[C@H](Cc1cccc2ccccc12)NC(=O)[C@@H](CCN)NC(=O)[C@H](CCN)NC(=O)[C@H](CO)NC(=O)[C@@H](Cc1c[nH]c2ccccc12)NC(=O)[C@@H](CO)NC(=O)CNC(=O)[C@@H](CCN)NC(=O)[C@H](NC(=O)[C@H](C)N)C(C)C)C(C)C)C(=O)N[C@@H](C)C(=O)O , write its reported hemolysis at 0.75 h, 400 ug/ml.
52.9

Given the compound CC[C@H](C)[C@@H](NC(=O)[C@@H](NC(=O)[C@H](CCC(=O)O)NC(=O)[C@H](Cc1ccccc1)NC(=O)[C@@H](CCN)NC(=O)[C@H](CCN)NC(=O)[C@H](CO)NC(=O)[C@@H](C)NC(=O)[C@@H](CO)NC(=O)CNC(=O)[C@@H](CCN)NC(=O)[C@H](N)C(C)C)C(C)C)C(=O)N[C@@H](C)C(=O)O , write its reported hemolysis at 0.75 h, 400 ug/ml.
0

Given the compound CC[C@H](C)[C@@H](NC(=O)[C@@H](NC(=O)[C@H](CCC(=O)O)NC(=O)[C@H](Cc1ccccc1)NC(=O)[C@@H](CCN)NC(=O)[C@H](CCN)NC(=O)[C@H](CO)NC(=O)[C@@H](Cc1c[nH]c2ccccc12)NC(=O)[C@@H](CO)NC(=O)[C@H](CCCCN)NC(=O)[C@@H](CCN)NC(=O)[C@H](NC(=O)[C@H](C)N)C(C)C)C(C)C)C(=O)N[C@@H](C)C(=O)O , write its reported hemolysis at 0.75 h, 400 ug/ml.
0.5
